- Tested on: OVCAR-4 ovarian
- assayName: NCI tumour cell line growth inhibition, 384-well format
In this section we review reported TGI values for a set of compounds.
metricName: TGI (µM)

1. CNCCn1c(=O)c2cc(OC)c(OC)cc2c2cnc3cc4c(cc3c21)OCO4	0.042
2. Cc1noc2c1-c1ccccc1C(c1ccc(Cl)cc1)=N[C@H]2CC(N)=O	3.29
3. O=C(N[C@@H](Cc1coc2ccccc12)B(O)O)[C@@H]1C[C@H]2CC[C@@H]1O2	60.6
